# Test system: HT29 colorectal carcinoma
# Test Details: qHTS cell viability screen (Cell Titer Glo), HT29
# Format: cell-based
# Condition: HT29 colorectal carcinoma, 72 hours, cell viability Cell Titer Glo; read-out: CC50 HT29
Measured Quantity: CC50 (µM)
Provide the reading as a plain figure in µM.

> print(dat)
                                smiles.data  reported.measurement
1  CSc1ccc(/C=C2/C(C)=C(CCNCc3ccco3)c3cc(F)ccc32)cc1                  4.27

q: Query CC50 for CSc1ccc(/C=C2/C(C)=C(CNC(=O)CN)c3cc(F)ccc32)cc1
a: 5.49

q: For the compound CSc1ccc(/C=C2/C(C)=C(CNS(=O)(=O)c3cccc4c(N(C)C)cccc34)c3cc(F)ccc32)cc1 , give its reported CC50.
a: 38.4

q: Return CC50 for the following compound: COc1cc(/C=C2/C(C)=C(CNC(=O)CN)c3cc(F)ccc32)cc(OC)c1OC
a: 8.51

q: Quote CC50 reported for COc1cc(/C=C2/C(C)=C(CNS(C)(=O)=O)c3cc(F)ccc32)cc(OC)c1OC please.
a: 20

---

# Test Details: BJ cell cytotoxicity counter screen
# Condition: human
Measured Quantity: EC50

q: Consider the compound COc1cc(/C=C2/C(C)=C(CNC(=O)[C@@H](N)CC(C)C)c3cc(F)ccc32)cc(OC)c1OC . State its measured EC50.
a: > 22.7 µM

---

# System: HT29 colorectal carcinoma
# Test Details: qHTS cell viability screen (Cell Titer Glo), HT29
# Type: cell-based
In this section we review reported CC50 values for a set of compounds.

# annotated cases, reported CC50 shown
> print(dat)
                                   compound  reported.measurement
1  CSc1ccc(/C=C2/C(C)=C(CN(Cc3ccc(F)cc3)Cc3ccc(F)cc3)c3cc(F)ccc32)cc1 [Compound 50]               > 50 µM
2  CSc1ccc(/C=C2/C(C)=C(CN(Cc3ccc(N(C)C)cc3)Cc3ccc(N(C)C)cc3)c3cc(F)ccc32)cc1 [Compound 51]               > 50 µM

Okay, next one:
q: Name the recorded CC50 of the item COc1cc(/C=C2/C(C)=C(CN(Cc3ccc(F)cc3)Cc3ccc(F)cc3)c3cc(F)ccc32)cc(OC)c1OC [Compound 57] in your answer.
a: > 50 µM

---

# Tested on: PC3 prostate cancer cell line
# Test Details: qHTS cell viability screen (Cell Titer Glo), PC3
# Assay type: cell-based
# Condition: 72 h, PC3 prostate, 72 hours, cell viability Cell Titer Glo; read-out: CC50 PC3
Measured Quantity: CC50 (µM)
The reply should contain only the number, in µM.

q: // Input: COc1cc(/C=C2/C(C)=C(CNC(=O)[C@@H]3CCCN3)c3cc(F)ccc32)cc(OC)c1OC [Compound 33] . Output its CC50 only.
a: 11.9

q: Kindly indicate its recorded CC50. Item: CSc1ccc(/C=C2/C(C)=C(CCNC(=O)c3ccco3)c3cc(F)ccc32)cc1 [Compound 14]
a: 8.92

q: Note CC50 for the molecule shown: CSc1ccc(/C=C2/C(C)=C(CNS(C)(=O)=O)c3cc(F)ccc32)cc1 [Compound 34]
a: 20.2

---

# Test system: PC3 prostate cancer cell line
# Test Details: qHTS cell viability screen (Cell Titer Glo), PC3
# Type: cell-based
# Condition: 72 h, PC3 prostate, 72 hours, cell viability Cell Titer Glo; read-out: CC50 PC3
The reader will find reported CC50 values listed item by item below.
Respond with the bare value in µM.

Examples with answers:
> print(dat)
                                smiles.data  reported.measurement
1  CSc1ccc(/C=C2/C(C)=C(CCN)c3cc(F)ccc32)cc1                  7.46
2  COc1cc(/C=C2/C(C)=C(CN)c3cc(F)ccc32)cc(OC)c1OC                  29.7

Continue with the next compound.
q: Give the measured CC50 for CC1=C(CCNCc2ccccc2)c2cc(F)ccc2/C1=C\c1ccc(S(C)(=O)=O)cc1
a: 7.02
